Hey, just so you know, these numbers are from ChEMBL document CHEMBL4834402.

experiment: Clearance in rat blood at 1 mg/kg, iv; format: ADME, organism-based; conditions: in vivo
assayReadout: clearance (mL/min/kg)

[[record]]
compound = "Cc1sc(C(=O)c2cncnc2N[C@@H]2C[C@H](COS(N)(=O)=O)[C@@H](O)C2)cc1[C@@H]1NCCc2ccc(Cl)cc21"
assayreadout = "clearance"
endpointresult = 1.67

[[record]]
compound = "NS(=O)(=O)OC[C@H]1C[C@@H](Nc2ncncc2C(=O)c2ccn(Cc3cccc(Br)c3)n2)C[C@@H]1O"
assayreadout = "clearance"
endpointresult = 1.67

[[record]]
compound = "Cc1sc(C(=O)c2cncnc2N[C@@H]2C[C@H](COS(N)(=O)=O)[C@@H](O)C2)cc1C1OCCc2ccc(Cl)cc21 (stereo in doubt)"
assayreadout = "clearance"
endpointresult = 1.67

